All figures here come from ChEMBL document CHEMBL1155396.

Hi there, I'd appreciate the recorded pIC50 for every entry that follows.
- target: Angiotensin-converting enzyme (Oryctolagus cuniculus, UniProt P12822)
- Sequence (P12822 whole entry): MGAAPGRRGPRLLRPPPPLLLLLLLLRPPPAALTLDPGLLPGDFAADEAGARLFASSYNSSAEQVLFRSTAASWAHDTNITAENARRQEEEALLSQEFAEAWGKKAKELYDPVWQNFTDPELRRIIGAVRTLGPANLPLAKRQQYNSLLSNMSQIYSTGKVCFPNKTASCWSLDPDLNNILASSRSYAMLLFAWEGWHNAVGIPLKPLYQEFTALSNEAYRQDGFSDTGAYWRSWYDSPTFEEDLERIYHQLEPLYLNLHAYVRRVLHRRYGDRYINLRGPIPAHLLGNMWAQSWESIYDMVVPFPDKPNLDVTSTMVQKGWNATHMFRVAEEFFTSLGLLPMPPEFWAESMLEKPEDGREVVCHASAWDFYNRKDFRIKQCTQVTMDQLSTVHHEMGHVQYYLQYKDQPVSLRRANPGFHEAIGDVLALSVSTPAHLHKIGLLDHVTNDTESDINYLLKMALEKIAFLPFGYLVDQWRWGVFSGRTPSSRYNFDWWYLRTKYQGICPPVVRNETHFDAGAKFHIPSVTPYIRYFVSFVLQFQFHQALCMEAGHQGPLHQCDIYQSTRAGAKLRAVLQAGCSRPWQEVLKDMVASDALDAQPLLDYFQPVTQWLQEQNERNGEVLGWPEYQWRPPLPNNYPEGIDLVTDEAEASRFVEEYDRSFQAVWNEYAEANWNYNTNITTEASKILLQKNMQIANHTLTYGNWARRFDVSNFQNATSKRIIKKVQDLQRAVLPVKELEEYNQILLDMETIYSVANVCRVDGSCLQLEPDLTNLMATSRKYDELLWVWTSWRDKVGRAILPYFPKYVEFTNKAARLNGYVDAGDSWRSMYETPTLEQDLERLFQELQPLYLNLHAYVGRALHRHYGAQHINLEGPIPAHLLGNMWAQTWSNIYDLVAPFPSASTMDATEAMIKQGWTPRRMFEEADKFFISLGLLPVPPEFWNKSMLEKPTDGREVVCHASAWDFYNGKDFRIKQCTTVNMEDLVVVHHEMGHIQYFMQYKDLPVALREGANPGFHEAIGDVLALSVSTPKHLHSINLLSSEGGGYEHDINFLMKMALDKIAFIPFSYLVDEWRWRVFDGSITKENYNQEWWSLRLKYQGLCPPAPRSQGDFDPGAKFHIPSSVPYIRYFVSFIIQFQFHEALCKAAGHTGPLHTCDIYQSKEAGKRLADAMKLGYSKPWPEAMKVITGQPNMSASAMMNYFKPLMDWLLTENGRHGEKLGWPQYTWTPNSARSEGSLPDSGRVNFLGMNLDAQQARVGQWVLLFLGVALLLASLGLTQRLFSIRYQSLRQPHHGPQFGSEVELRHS
- measurementNotes: Inhibition of ACE in rabbit lung assessed as decrease in dansylglycine concentration after 5 mins by HPLC analysis
Units for pIC50: none; it is -log10 of a concentration expressed in mol/L.

*Q* What value of pIC50 has been recorded for this entry: O=c1cc(-c2ccc(O)cc2)oc2cc(O)cc(O)c12 [APIGENIN]
*A* 3.55

*Q* Tell me the measured pIC50 of COc1ccc(C2CC(c3cc(OC)c(OC)c(OC)c3)=NN2C)cc1N (stereo unspecified) , please.
*A* 3.13

*Q* I'd like to know its pIC50. The compound in question is COc1cc(C2CC(c3cc(OC)c(OC)c(OC)c3)=NN2C)ccc1O (stereo unspecified)
*A* 3.17

*Q* Which pIC50 is reported for this compound? O=c1cc(-c2ccc(O)c(O)c2)oc2cc(O)cc(O)c12 [LUTEOLIN]
*A* 3.54

*Q* Dear colleague, I am looking for the recorded pIC50 of the following compound: COc1cc([C-]2CC(c3ccc([N+](=O)[O-])c(O)c3)[N+](C)=N2)cc(OC)c1OC (stereo unspecified)
*A* 3.22

*Q* What does the data say about its pIC50? Entry: "COc1ccc(/C=C/C(=O)c2cc(OC)c(OC)c(OC)c2)cc1N"
*A* 3.66
